Tested on: RIVA
Experiment: growth inhibition by drug alone (1 - RLU/untreated control) (fraction); higher = stronger inhibition
Settings: 10 nM; time (day): 4; 177Lu-lilotomab satetraxetan 0 ug/ml
Structures can show the parent of a compound that is named as a salt.
assay_readout: growth inhibition by drug alone
Give the figure by itself; no unit, no explanation.

Complete the entry with growth inhibition by drug alone for `O=C(NOC[C@H](O)CO)c1ccc(F)c(F)c1Nc1ccc(I)cc1F` 0.141

Complete the entry with growth inhibition by drug alone for CNC(=O)[C@@H](NC(=O)[C@H](CC(C)C)[C@H](O)C(=O)NO)C(C)(C)C [Marimastat] -0.343

Complete the entry with growth inhibition by drug alone for `CCN(CC)CCCCNc1ncc2cc(-c3cc(OC)cc(OC)c3)c(NC(=O)NC(C)(C)C)nc2n1` -0.246

Complete the entry with growth inhibition by drug alone for CC1=C(/C=C/C(C)=C/C=C/C(C)=C/C(=O)Nc2ccc(O)cc2)C(C)(C)CCC1 [Fenretinide] -0.0451

Complete the entry with growth inhibition by drug alone for `COc1ccc(-c2ccc3c(N4CCOCC4)nc(N4C[C@@H](C)O[C@@H](C)C4)nc3n2)cc1CO` 0.0995

Complete the entry with growth inhibition by drug alone for `COc1cc2ncnc(-n3nc(-c4ccccn4)nc3N)c2cc1OC` 0.0304

Complete the entry with growth inhibition by drug alone for CCCC(CCC)C(=O)O [Valproic acid sodium salt (Sodium valproate)] -0.0344

Complete the entry with growth inhibition by drug alone for CO[C@H]1C[C@@H]2CC[C@@H](C)[C@@](O)(O2)C(=O)C(=O)N2CCCC[C@H]2C(=O)O[C@H]([C@H](C)C[C@@H]2CC[C@@H](OC(=O)C(C)(CO)CO)[C@H](OC)C2)CC(=O)[C@H](C)/C=C(\C)[C@@H](O)[C@@H](OC)C(=O)[C@H](C)C[C@H](C)/C=C/C=C/C=C/1C [Temsirolimus (Torisel)] 0.785

Complete the entry with growth inhibition by drug alone for `Cn1cc(-c2ccc3nnc(Sc4ccc5ncccc5c4)n3n2)cn1` 0.0644

Complete the entry with growth inhibition by drug alone for `C[C@@H](Oc1cc(-n2cnc3ccc(CN4CCN(C)CC4)cc32)sc1C(N)=O)c1ccccc1C(F)(F)F` 0.265

Complete the entry with growth inhibition by drug alone for C[C@]1(O)C[C@@H](c2nc(-c3ccc4ccc(-c5ccccc5)nc4c3)c3c(N)nccn32)C1 [Linsitinib (OSI-906)] -0.216

Complete the entry with growth inhibition by drug alone for `O=C(Cc1ccc(-c2ccc(OCCN3CCOCC3)cc2)cn1)NCc1ccccc1` 0.0193

Complete the entry with growth inhibition by drug alone for `CCC[C@H](NC(=O)/C(C#N)=C/c1cccc(Br)n1)c1ccccc1` -0.0305

Complete the entry with growth inhibition by drug alone for COc1ccc(C2=N[C@@H](c3ccc(Cl)cc3)[C@@H](c3ccc(Cl)cc3)N2C(=O)N2CCNC(=O)C2)c(OC(C)C)c1 [Nutlin-3] -0.261

Complete the entry with growth inhibition by drug alone for CCCS(=O)(=O)Nc1ccc(F)c(C(=O)c2c[nH]c3ncc(-c4ccc(Cl)cc4)cc23)c1F [Vemurafenib (PLX4032)] -0.0744

Complete the entry with growth inhibition by drug alone for CN(N=O)C(=O)N[C@@H](C=O)[C@@H](O)[C@H](O)[C@H](O)CO [Streptozotocin (Zanosar)] -0.268

Complete the entry with growth inhibition by drug alone for CS(=O)(=O)CCNCc1ccc(-c2ccc3ncnc(Nc4ccc(OCc5cccc(F)c5)c(Cl)c4)c3c2)o1 [Lapatinib Ditosylate (Tykerb)] 0.00959

Complete the entry with growth inhibition by drug alone for `CCc1cc(-c2n[nH]c(C)c2-c2ccc3c(c2)OCCO3)c(O)cc1O` -0.183

Complete the entry with growth inhibition by drug alone for CC(NC(=O)c1ccccc1/N=C/c1c(O)ccc2ccccc12)c1ccccc1 (stereo not drawn) [Sirtinol] 0.00147

Complete the entry with growth inhibition by drug alone for `CCOc1cc(C(=O)Nc2ccc(Cl)c(-c3nc4ccccc4[nH]3)c2)cc(OCC)c1OCC` 0.061

Complete the entry with growth inhibition by drug alone for `O=C(Nc1ccccc1-c1cn2c(CN3CCNCC3)csc2n1)c1cnc2ccccc2n1` 0.0902

Complete the entry with growth inhibition by drug alone for O=C(/C=C/C#Cc1cccc(NS(=O)(=O)c2ccccc2)c1)NO [Oxamflatin] 0.0278

Complete the entry with growth inhibition by drug alone for Nc1cccc2c1C(=O)N(C1CCC(=O)NC1=O)C2=O (stereo not drawn) [Pomalidomide] -0.0278

Complete the entry with growth inhibition by drug alone for `COc1cc(N2CCC(N3CCN(C)CC3)CC2)ccc1Nc1ncc(Cl)c(Nc2ccccc2S(=O)(=O)C(C)C)n1` -0.0284

Complete the entry with growth inhibition by drug alone for `c1ccc2c(CCNc3ccc(Nc4ccncc4)cc3)c[nH]c2c1` -0.0355

Complete the entry with growth inhibition by drug alone for `C[C@@H](Oc1cc(-c2cnn(C3CCNCC3)c2)cnc1N)c1c(Cl)ccc(F)c1Cl` 0.0307

Complete the entry with growth inhibition by drug alone for `CC(C)C[C@H](NC(=O)CNC(=O)c1cc(Cl)ccc1Cl)B(O)O` -0.196

Complete the entry with growth inhibition by drug alone for CN1CCC(CNc2ccc3ncc(-c4cccc(OC(F)(F)F)c4)n3n2)CC1 [SGI-1776 free base] -0.155

Complete the entry with growth inhibition by drug alone for O=C(c1ccc(OCCN2CCCCC2)cc1)c1c(-c2ccc(O)cc2)sc2cc(O)ccc12 [Evista (Raloxifene Hydrochloride)] -0.0405

Complete the entry with growth inhibition by drug alone for `Cc1c(CCOc2ccc(C(=O)O)cc2)c2cc(Cl)ccc2n1C(c1ccccc1)c1ccccc1` -0.201

Complete the entry with growth inhibition by drug alone for O=C(O)CCCc1ccccc1 [4-Phenylbutyrate] -0.0476

Complete the entry with growth inhibition by drug alone for Cc1cn(-c2cc(NC(=O)c3ccc(C)c(Nc4nccc(-c5cccnc5)n4)c3)cc(C(F)(F)F)c2)cn1 [Nilotinib (AMN-107)] -0.0957

Complete the entry with growth inhibition by drug alone for CS(=O)(=O)c1ccc(C(=O)Nc2ccc(Cl)c(-c3ccccn3)c2)c(Cl)c1 [Vismodegib (GDC-0449)] 0.121
